tested-on: 5-HT1D (Homo sapiens, UniProt P28221)
measured-metric: IC50

Problem: Recorded IC50 for C[C@]12C[C@@H](O)[C@@H]3C[C@@]1(O[C@@H]1O[C@H](CO)[C@@H](O)[C@H](O)[C@H]1O)[C@@]3(COC(=O)c1ccccc1)C(=O)O2 [albiflorin, Albiflorin] with 5-HT1D (Homo sapiens, UniProt P28221), please?
Result: > 10 µM

---

tested-on: M3 (Homo sapiens)
Sequence (P20309 whole entry): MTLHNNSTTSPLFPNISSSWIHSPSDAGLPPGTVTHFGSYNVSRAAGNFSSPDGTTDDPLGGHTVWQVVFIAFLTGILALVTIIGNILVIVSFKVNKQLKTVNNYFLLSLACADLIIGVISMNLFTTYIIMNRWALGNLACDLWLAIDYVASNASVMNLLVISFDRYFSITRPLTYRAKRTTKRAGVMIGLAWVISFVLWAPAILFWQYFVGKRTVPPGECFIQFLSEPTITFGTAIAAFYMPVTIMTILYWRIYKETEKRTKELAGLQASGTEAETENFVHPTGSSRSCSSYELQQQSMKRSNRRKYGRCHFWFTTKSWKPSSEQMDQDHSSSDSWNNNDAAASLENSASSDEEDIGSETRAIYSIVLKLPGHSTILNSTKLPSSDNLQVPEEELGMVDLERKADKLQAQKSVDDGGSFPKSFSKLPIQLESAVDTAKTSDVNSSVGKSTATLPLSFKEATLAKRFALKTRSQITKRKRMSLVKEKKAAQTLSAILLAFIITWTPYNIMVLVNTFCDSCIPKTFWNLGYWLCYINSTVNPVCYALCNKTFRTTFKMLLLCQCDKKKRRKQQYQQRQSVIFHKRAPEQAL
pIC50: −log10 of the molar value.
measured-metric: pIC50

Problem: Recorded pIC50 for C[C@]12C[C@@H](O)[C@@H]3C[C@@]1(O[C@@H]1O[C@H](CO)[C@@H](O)[C@H](O)[C@H]1O)[C@@]3(COC(=O)c1ccccc1)C(=O)O2 with M3 (Homo sapiens), please?
Result: < 5.00

---

tested-on: NET (Rattus norvegicus, UniProt Q63380)
Sequence (Q63380 1-617): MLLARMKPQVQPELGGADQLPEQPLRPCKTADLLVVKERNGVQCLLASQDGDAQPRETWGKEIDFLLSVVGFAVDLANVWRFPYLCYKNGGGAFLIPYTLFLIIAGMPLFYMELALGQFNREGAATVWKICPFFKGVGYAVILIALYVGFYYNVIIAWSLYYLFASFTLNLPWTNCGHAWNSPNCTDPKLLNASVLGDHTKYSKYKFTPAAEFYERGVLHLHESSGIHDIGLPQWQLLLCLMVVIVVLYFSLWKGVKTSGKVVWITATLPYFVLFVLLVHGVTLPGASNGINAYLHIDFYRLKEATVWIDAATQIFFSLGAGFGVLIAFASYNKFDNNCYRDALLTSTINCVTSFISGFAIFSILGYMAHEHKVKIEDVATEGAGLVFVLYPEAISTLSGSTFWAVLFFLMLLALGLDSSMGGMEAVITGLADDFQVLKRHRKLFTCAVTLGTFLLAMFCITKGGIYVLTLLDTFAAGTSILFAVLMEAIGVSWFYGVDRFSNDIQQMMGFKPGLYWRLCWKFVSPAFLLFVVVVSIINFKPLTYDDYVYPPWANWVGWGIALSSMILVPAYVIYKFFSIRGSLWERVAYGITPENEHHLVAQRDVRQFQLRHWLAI
settings: Frontal cortex synaptosome, read-out: IC50 values, uptake of [3H]-NE (NET)
measured-metric: IC50 (nM)
Report the value in nM with no unit label.

Problem: What value of IC50 has been reported for the following molecule? C[C@]12C[C@@H](O)[C@@H]3C[C@@]1(O[C@@H]1O[C@H](CO)[C@@H](O)[C@H](O)[C@H]1O)[C@@]3(COC(=O)c1ccccc1)C(=O)O2
Result: 0.98

---

tested-on: UniProt P43140
Sequence (P43140 whole entry): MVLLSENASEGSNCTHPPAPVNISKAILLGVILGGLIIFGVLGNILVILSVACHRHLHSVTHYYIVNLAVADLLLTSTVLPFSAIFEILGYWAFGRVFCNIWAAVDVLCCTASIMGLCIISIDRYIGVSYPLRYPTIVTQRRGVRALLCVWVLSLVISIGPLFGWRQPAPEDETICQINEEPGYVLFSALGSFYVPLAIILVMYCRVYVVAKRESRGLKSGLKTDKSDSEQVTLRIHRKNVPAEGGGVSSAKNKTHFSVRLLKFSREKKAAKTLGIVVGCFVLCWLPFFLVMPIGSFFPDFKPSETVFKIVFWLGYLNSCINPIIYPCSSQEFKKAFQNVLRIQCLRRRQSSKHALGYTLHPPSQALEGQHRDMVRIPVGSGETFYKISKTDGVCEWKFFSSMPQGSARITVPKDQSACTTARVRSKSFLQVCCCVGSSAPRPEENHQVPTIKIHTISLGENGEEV
measured-metric: pIC50
By convention, pIC50 is the negative base-10 log of a molar concentration.

Problem: What value of pIC50 has been reported for the following molecule? C[C@]12C[C@@H](O)[C@@H]3C[C@@]1(O[C@@H]1O[C@H](CO)[C@@H](O)[C@H](O)[C@H]1O)[C@@]3(COC(=O)c1ccccc1)C(=O)O2
Result: 5.33

---

tested-on: 5-HT2a (Homo sapiens)
measured-metric: IC50 (µM)
Report the value in µM with no unit label.

Problem: What value of IC50 has been reported for the following compound? C[C@]12C[C@@H](O)[C@@H]3C[C@@]1(O[C@@H]1O[C@H](CO)[C@@H](O)[C@H](O)[C@H]1O)[C@@]3(COC(=O)c1ccccc1)C(=O)O2 [albiflorin, Albiflorin]
Result: 4

---

tested-on: UniProt:P34969
Sequence (P34969 whole entry): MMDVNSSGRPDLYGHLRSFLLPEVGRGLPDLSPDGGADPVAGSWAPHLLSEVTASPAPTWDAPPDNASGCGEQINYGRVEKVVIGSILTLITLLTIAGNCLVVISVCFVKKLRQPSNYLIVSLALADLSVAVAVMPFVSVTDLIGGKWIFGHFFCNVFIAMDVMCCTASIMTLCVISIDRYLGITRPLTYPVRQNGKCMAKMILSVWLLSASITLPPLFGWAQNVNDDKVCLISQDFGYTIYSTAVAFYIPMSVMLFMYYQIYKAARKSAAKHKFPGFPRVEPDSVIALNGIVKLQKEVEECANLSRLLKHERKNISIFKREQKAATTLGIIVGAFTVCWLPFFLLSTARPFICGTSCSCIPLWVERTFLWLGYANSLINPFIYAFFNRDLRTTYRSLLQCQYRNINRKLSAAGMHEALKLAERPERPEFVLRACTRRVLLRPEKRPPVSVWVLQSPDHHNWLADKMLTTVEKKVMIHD
measured-metric: IC50

Problem: Recorded IC50 for C[C@]12C[C@@H](O)[C@@H]3C[C@@]1(O[C@@H]1O[C@H](CO)[C@@H](O)[C@H](O)[C@H]1O)[C@@]3(COC(=O)c1ccccc1)C(=O)O2 with UniProt:P34969, please?
Result: > 10 µM

---

tested-on: μ (Homo sapiens, UniProt P35372)
experiment-notes: CNS receptor binding, opioid μ
settings: CHO cell line, [3H]-dipnorphine(1), read-out: IC50 values for albiflorin
pIC50: −log10 of the molar value.
measured-metric: pIC50

Problem: Recorded pIC50 for C[C@]12C[C@@H](O)[C@@H]3C[C@@]1(O[C@@H]1O[C@H](CO)[C@@H](O)[C@H](O)[C@H]1O)[C@@]3(COC(=O)c1ccccc1)C(=O)O2 [albiflorin, Albiflorin] with μ (Homo sapiens, UniProt P35372), please?
Result: < 5.00

---

tested-on: hDAT (Homo sapiens, UniProt Q01959)
Construct: expressed in transfected cells
Sequence (Q01959 whole entry): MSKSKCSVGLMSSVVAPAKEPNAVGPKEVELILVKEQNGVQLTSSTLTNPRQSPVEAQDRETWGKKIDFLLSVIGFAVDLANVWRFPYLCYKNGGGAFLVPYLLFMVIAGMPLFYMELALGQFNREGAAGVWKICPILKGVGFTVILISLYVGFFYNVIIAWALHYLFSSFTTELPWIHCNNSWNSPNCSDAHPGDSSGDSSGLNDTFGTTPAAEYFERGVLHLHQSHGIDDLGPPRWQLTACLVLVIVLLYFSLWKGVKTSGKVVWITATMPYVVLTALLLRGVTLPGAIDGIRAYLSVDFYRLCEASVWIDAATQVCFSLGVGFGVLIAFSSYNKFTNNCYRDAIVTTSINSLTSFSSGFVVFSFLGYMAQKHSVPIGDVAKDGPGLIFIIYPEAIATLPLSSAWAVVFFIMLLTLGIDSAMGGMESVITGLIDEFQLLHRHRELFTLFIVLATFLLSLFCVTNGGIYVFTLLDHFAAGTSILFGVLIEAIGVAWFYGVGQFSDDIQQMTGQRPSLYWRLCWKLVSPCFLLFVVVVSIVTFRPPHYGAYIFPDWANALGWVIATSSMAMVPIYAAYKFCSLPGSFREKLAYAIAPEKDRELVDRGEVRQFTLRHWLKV
settings: [3H]-win35,428, HEK293 cell line, read-out: Ki values, DAT binding
measured-metric: pKi
By convention, pKi is the negative base-10 log of a molar concentration.

Problem: What value of pKi has been reported for the following compound? C[C@]12C[C@@H](O)[C@@H]3C[C@@]1(O[C@@H]1O[C@H](CO)[C@@H](O)[C@H](O)[C@H]1O)[C@@]3(COC(=O)c1ccccc1)C(=O)O2
Result: 5.83

---

tested-on: rat SERT (Rattus norvegicus, UniProt P31652)
Sequence (P31652 whole entry): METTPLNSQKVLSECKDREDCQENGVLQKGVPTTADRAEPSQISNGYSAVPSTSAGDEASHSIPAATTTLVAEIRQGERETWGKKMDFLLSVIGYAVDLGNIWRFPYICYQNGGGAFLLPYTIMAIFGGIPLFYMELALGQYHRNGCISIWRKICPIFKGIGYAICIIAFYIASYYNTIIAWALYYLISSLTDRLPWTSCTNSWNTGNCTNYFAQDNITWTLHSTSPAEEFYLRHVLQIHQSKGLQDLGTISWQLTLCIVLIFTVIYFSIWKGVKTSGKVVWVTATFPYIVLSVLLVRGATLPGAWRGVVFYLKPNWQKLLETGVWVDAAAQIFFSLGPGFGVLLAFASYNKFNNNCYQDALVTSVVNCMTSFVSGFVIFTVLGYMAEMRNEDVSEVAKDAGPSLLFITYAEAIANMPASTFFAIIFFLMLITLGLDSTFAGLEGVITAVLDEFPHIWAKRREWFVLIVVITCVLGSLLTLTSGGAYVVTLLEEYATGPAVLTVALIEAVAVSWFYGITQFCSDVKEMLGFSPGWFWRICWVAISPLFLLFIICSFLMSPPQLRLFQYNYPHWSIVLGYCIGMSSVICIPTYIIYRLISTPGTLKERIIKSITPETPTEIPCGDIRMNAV
measured-metric: Ki (nM)
Report the value in nM with no unit label.

Problem: Recorded Ki for C[C@]12C[C@@H](O)[C@@H]3C[C@@]1(O[C@@H]1O[C@H](CO)[C@@H](O)[C@H](O)[C@H]1O)[C@@]3(COC(=O)c1ccccc1)C(=O)O2 with rat SERT (Rattus norvegicus, UniProt P31652), please?
Result: 5.25

---

tested-on: D4 (Homo sapiens, UniProt P21917)
Sequence (P21917 whole entry): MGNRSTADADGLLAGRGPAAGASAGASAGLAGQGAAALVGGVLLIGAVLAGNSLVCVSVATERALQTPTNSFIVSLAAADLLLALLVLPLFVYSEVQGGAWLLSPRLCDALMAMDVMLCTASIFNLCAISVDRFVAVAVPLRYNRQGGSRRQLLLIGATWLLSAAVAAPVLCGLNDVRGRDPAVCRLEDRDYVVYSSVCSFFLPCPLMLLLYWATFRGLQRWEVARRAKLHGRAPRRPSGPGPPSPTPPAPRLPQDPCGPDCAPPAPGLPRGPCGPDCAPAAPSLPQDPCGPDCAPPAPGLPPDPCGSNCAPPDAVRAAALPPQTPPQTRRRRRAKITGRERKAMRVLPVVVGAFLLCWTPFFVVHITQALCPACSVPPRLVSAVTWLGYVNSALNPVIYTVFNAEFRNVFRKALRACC
pIC50: −log10 of the molar value.
measured-metric: pIC50

Problem: What value of pIC50 has been reported for the following compound? C[C@]12C[C@@H](O)[C@@H]3C[C@@]1(O[C@@H]1O[C@H](CO)[C@@H](O)[C@H](O)[C@H]1O)[C@@]3(COC(=O)c1ccccc1)C(=O)O2 [albiflorin, Albiflorin]
Result: < 5.00

---

tested-on: M4 (Homo sapiens, UniProt P08173)
Sequence (P08173 1-479): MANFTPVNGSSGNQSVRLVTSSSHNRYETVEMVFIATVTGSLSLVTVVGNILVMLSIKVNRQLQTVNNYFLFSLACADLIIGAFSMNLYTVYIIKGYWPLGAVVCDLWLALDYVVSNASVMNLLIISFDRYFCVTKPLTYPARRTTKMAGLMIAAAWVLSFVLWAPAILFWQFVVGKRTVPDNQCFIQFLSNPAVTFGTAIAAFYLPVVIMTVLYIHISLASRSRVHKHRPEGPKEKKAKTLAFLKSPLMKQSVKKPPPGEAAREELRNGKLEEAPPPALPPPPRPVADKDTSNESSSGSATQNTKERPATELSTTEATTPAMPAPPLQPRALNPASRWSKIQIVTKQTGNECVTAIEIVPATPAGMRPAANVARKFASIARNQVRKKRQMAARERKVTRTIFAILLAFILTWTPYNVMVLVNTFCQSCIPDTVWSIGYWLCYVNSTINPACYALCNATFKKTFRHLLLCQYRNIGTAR
pIC50: −log10 of the molar value.
measured-metric: pIC50

Problem: What value of pIC50 has been reported for the following compound? C[C@]12C[C@@H](O)[C@@H]3C[C@@]1(O[C@@H]1O[C@H](CO)[C@@H](O)[C@H](O)[C@H]1O)[C@@]3(COC(=O)c1ccccc1)C(=O)O2 [albiflorin, Albiflorin]
Result: < 5.00

---

tested-on: hNET (Homo sapiens)
Sequence (P23975 whole entry): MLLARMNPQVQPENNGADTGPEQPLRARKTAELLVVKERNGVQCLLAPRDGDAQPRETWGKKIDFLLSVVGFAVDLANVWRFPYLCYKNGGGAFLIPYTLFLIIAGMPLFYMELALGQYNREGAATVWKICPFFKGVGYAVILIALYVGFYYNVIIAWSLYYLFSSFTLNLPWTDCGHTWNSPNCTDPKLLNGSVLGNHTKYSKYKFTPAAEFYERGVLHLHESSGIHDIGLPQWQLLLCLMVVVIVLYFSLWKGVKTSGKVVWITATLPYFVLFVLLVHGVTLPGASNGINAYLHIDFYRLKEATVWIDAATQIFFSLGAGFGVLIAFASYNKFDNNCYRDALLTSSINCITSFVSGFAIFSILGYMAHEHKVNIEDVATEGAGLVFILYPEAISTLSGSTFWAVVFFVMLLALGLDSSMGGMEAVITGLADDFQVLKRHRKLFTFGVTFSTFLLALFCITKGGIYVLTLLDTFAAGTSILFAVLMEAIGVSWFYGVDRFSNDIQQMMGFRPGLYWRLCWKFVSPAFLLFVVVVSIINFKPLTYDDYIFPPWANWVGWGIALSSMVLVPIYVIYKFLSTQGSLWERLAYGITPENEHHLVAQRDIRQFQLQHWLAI
measured-metric: pKi
By convention, pKi is the negative base-10 log of a molar concentration.

Problem: Recorded pKi for C[C@]12C[C@@H](O)[C@@H]3C[C@@]1(O[C@@H]1O[C@H](CO)[C@@H](O)[C@H](O)[C@H]1O)[C@@]3(COC(=O)c1ccccc1)C(=O)O2 with hNET (Homo sapiens), please?
Result: 8.91

---

tested-on: H4 (Homo sapiens)
measured-metric: IC50

Problem: What value of IC50 has been reported for the following compound? C[C@]12C[C@@H](O)[C@@H]3C[C@@]1(O[C@@H]1O[C@H](CO)[C@@H](O)[C@H](O)[C@H]1O)[C@@]3(COC(=O)c1ccccc1)C(=O)O2
Result: > 10 µM

---

tested-on: H1 (Homo sapiens, UniProt P35367)
Sequence (P35367 whole entry): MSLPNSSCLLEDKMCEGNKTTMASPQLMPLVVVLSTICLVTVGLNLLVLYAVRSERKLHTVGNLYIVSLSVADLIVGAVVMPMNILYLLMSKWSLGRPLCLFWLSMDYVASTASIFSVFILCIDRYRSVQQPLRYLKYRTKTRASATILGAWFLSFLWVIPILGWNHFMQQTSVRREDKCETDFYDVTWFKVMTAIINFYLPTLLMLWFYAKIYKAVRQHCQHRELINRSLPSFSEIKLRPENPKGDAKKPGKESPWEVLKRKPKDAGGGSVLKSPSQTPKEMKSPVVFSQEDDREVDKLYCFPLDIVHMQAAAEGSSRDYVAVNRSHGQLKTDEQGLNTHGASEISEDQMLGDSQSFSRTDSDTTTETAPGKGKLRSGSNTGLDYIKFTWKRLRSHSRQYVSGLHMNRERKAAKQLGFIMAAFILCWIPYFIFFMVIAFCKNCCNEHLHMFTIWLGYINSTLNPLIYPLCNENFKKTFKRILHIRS
measured-metric: IC50

Problem: What value of IC50 has been reported for the following molecule? C[C@]12C[C@@H](O)[C@@H]3C[C@@]1(O[C@@H]1O[C@H](CO)[C@@H](O)[C@H](O)[C@H]1O)[C@@]3(COC(=O)c1ccccc1)C(=O)O2
Result: > 10 µM

---

tested-on: UniProt P22909
Sequence (P22909 1-465): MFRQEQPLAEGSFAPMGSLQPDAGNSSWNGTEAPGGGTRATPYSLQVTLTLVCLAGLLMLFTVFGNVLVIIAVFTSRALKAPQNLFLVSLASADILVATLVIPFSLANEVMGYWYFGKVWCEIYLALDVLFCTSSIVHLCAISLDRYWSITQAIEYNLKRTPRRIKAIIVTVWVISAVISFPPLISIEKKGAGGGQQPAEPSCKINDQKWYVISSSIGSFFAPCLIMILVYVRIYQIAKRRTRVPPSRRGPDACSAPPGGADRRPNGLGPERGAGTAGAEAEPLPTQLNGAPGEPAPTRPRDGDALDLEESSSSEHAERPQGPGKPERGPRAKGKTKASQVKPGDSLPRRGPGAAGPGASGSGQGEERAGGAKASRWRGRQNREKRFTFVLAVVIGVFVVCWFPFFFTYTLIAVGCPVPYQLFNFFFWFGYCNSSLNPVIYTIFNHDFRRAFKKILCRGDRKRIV
measured-metric: IC50

Problem: What value of IC50 has been reported for the following molecule? C[C@]12C[C@@H](O)[C@@H]3C[C@@]1(O[C@@H]1O[C@H](CO)[C@@H](O)[C@H](O)[C@H]1O)[C@@]3(COC(=O)c1ccccc1)C(=O)O2 [albiflorin, Albiflorin]
Result: > 10 µM

---

tested-on: hDAT (Homo sapiens, UniProt Q01959)
settings: HEK293 cell line, read-out: IC50 values, uptake of [3H]-DA (DAT)
measured-metric: pIC50
By convention, pIC50 is the negative base-10 log of a molar concentration.

Problem: What value of pIC50 has been reported for the following compound? C[C@]12C[C@@H](O)[C@@H]3C[C@@]1(O[C@@H]1O[C@H](CO)[C@@H](O)[C@H](O)[C@H]1O)[C@@]3(COC(=O)c1ccccc1)C(=O)O2
Result: 5.65
